Tested on: BxPC-3 (pancreatic adenocarcinoma)
Assay: Cytotoxicity (CellTiter-Glo) assay, BxPC-3
Type: cell-based
Conditions: Homo sapiens, BXPC-3, read-out: IC50, Cytotoxicity BxPC-3
Criterion: IC50 strictly less than 600 nM. Met: yes. Not met: no.

Request: Dear reviewer, please state whether CN(CC1(CO)CCCC1)C(=O)CCCCCCCNc1c(Nc2ccncc2)c(=O)c1=O [compound 69] has IC50 strictly beneath 600 nM.
Response: yes

Request: Try the compound O=C(CCCCCCNc1c(Nc2ccncc2)c(=O)c1=O)N(OCCN1CCOCC1)C1CCCCC1 [compound 52, reference compound]
Response: yes

Request: Try the compound CN(CCON(C(=O)CCCCCCNC(=O)Nc1ccncc1)C1CCCCC1)C(=O)c1cccc(N)c1 [compound 43]
Response: yes

Request: Try the compound O=C(CCCCCCCNc1c(Nc2ccncc2)c(=O)c1=O)N1CCC(O)CC1 [compound 67]
Response: no

Request: Try the compound O=C(CCCCCCCNc1c(Nc2ccncc2)c(=O)c1=O)N1CC(O)C1 [compound 68]
Response: no

Request: Try the compound CN(CC1(CO)CCCC1)C(=O)CCCCCCCN/C(=N\C#N)Nc1ccncc1 [compound 80]
Response: yes

Request: Try the compound O=C(/C=C/c1cccnc1)NCCCCC1CCN(C(=O)c2ccccc2O)CC1 [compound 8]
Response: no

Request: Try the compound O=C(/C=C/c1cccnc1)NCCCCC1CCN(C(=O)c2ccccc2)CC1 [FK-866, reference compound]
Response: yes
